Origin of the recorded values: ChEMBL document CHEMBL3098111

Target: UniProt:P28564
MEASUREMENT_NAME: pKi
Convention used: pKi is expressed as -log10 of the molar concentration.

Request: Which pKi is reported for this compound? COc1ccc(CNC(=O)c2cc(-c3cc(Cl)cc(Cl)c3)cnc2-c2cccnc2)cc1OC
Response: 5.64

====

Target: 5-hydroxytryptamine receptor 1B (Rattus norvegicus)
Sequence (P28564 whole entry): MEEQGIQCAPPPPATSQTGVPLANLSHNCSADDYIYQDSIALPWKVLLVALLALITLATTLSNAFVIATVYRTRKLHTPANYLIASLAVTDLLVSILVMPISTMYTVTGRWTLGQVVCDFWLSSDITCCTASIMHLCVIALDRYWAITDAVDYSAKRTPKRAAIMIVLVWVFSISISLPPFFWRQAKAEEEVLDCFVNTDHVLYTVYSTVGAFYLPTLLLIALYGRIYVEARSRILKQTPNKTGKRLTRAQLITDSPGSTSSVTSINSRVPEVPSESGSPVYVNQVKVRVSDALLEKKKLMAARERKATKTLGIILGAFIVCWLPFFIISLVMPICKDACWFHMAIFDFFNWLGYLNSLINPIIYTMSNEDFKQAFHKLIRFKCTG
MEASUREMENT_NAME: IC50 (nM)
Expressed in nM, but write only the number.

Request: // IC50 lookup, key: COc1ccc(CNC(=O)c2cc(-c3cc(Cl)cc(Cl)c3)cnc2-c2cccnc2)cc1OC
Response: 2400

====

Experiment: Inhibition of guinea pig adenosine transporter
Parameters: species or system Cavia porcellus
MEASUREMENT_NAME: Ki
Give the figure together with its unit, number first.

Request: Please report the recorded Ki for COc1ccc(CNC(=O)c2cc(-c3cc(Cl)cc(Cl)c3)cnc2-c2cccnc2)cc1OC .
Response: 0.866 µM

====

Target: L-type calcium channel, dihydropyridine binding site (Rattus norvegicus, UniProt P22002+P27732+Q02485)
Assay: Inhibition of rat L-type calcium channel dihydropyridine binding site at 10 uM relative to control
MEASUREMENT_NAME: inhibition at 10 µM (%)
Report the figure in % without appending any unit label.

Request: May I ask what inhibition at 10 µM has been recorded for COc1ccc(CNC(=O)c2cc(-c3cc(Cl)cc(Cl)c3)cnc2-c2cccnc2)cc1OC ?
Response: 24

====

Molecular target: hERG (KCNH2) (Homo sapiens, UniProt Q12809)
Sequence (Q12809 whole entry): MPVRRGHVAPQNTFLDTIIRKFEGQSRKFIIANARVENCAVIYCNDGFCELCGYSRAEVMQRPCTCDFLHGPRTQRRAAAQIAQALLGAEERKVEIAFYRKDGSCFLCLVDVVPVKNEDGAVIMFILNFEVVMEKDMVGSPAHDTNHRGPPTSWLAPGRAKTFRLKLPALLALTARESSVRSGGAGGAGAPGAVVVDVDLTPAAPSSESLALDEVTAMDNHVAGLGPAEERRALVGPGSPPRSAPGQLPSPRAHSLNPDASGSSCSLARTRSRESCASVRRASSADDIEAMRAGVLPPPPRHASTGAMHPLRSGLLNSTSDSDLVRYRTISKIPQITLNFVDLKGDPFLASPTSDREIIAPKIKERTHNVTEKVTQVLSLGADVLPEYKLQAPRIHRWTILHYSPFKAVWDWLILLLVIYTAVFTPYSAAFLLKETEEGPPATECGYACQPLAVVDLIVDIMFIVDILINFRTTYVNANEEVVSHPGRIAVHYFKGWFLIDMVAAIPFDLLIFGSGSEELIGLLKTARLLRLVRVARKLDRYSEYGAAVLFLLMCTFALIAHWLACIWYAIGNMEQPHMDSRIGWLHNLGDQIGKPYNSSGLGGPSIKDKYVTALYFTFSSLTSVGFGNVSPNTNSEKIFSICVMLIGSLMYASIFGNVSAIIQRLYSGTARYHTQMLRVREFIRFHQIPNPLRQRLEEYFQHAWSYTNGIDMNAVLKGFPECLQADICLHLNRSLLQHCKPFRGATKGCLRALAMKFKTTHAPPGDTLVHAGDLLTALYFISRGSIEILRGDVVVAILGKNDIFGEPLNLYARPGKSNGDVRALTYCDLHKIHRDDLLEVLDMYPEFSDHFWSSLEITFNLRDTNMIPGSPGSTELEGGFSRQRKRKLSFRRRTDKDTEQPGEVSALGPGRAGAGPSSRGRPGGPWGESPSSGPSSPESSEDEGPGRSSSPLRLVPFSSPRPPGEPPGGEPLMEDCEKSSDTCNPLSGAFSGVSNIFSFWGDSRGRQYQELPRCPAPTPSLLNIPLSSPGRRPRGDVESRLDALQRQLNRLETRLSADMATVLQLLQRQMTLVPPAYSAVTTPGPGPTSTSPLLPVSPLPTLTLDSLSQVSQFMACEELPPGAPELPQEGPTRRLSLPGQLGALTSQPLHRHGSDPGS
Test: Inhibition of human ERG at 10 uM relative to control
MEASUREMENT_NAME: inhibition at 10 µM (%)
Expressed in %, but write only the number.

Request: Give the measured inhibition at 10 µM of COc1ccc(CNC(=O)c2cc(-c3cc(Cl)cc(Cl)c3)cnc2-c2cccnc2)cc1OC .
Response: 58

====

Assay: Inhibition of rabbit monoamine transporter
Design: species or system Oryctolagus cuniculus
MEASUREMENT_NAME: Ki (µM)
Give just the numeric value; µM need not be written.

Request: For the compound shown here, COc1ccc(CNC(=O)c2cc(-c3cc(Cl)cc(Cl)c3)cnc2-c2cccnc2)cc1OC , give the reported Ki.
Response: 6.82

====

Test: Ratio of drug level in brain to plasma in rat at 3 mg/kg, po after 1 hr
Type: ADME, organism-based
Design: dose 3 mg/kg, route oral
Settings: read-out: BPR
MEASUREMENT_NAME: Kp at 1 h
Response field accepts a number only; no unit should be typed.

Request: Which Kp at 1 h reading was recorded for the compound COc1ccc(CNC(=O)c2cc(-c3cc(Cl)cc(Cl)c3)cnc2-c2cccnc2)cc1OC.Cl ?
Response: 0.19

====

Biological target: Orexin receptor type 2 (Homo sapiens)
Sequence (O43614 whole entry): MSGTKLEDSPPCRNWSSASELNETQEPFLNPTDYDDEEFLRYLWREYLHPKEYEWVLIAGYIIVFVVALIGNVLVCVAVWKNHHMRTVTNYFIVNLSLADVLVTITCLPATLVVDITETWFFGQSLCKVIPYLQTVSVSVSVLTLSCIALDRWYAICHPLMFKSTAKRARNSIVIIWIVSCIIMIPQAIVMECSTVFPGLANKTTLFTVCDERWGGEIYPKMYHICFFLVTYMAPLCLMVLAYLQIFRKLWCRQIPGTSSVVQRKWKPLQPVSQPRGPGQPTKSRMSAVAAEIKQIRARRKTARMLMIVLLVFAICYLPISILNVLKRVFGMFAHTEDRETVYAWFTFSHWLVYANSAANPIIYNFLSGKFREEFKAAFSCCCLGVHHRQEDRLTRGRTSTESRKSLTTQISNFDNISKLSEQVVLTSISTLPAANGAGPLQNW
Experiment: Antagonist activity at human orexin-2 receptor assessed as inhibition of orexin-A-induced intracellular calcium mobilization after 30 mins by cell-based FLIPR assay
MEASUREMENT_NAME: pIC50
As a rule, pIC50 stands for the negative log10 of the concentration, concentration in M.

Request: Record request: pIC50 value, item COc1ccc(CNC(=O)c2cc(-c3cc(Cl)cc(Cl)c3)cnc2-c2cccnc2)cc1OC
Response: 7.92

====

Molecular target: UniProt:P41595
Sequence (P41595 whole entry): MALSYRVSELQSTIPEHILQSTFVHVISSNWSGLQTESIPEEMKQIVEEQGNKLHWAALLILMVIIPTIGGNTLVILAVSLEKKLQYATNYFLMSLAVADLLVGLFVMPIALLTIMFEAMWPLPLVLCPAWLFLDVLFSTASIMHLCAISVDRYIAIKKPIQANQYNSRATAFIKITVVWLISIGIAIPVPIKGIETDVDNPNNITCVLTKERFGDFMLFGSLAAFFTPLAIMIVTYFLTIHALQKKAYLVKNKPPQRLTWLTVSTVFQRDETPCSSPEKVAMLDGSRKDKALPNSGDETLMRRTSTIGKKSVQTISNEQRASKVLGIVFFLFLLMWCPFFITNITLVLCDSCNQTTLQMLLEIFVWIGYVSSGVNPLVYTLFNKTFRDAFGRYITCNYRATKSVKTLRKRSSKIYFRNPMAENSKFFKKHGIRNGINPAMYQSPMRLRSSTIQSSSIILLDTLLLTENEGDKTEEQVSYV
MEASUREMENT_NAME: Ki (nM)
A number alone suffices; assume nM.

Request: For COc1ccc(CNC(=O)c2cc(-c3cc(Cl)cc(Cl)c3)cnc2-c2cccnc2)cc1OC , what is its reported Ki?
Response: 662

====

Molecular target: MAO-A (Homo sapiens, UniProt P21397)
Sequence (P21397 whole entry): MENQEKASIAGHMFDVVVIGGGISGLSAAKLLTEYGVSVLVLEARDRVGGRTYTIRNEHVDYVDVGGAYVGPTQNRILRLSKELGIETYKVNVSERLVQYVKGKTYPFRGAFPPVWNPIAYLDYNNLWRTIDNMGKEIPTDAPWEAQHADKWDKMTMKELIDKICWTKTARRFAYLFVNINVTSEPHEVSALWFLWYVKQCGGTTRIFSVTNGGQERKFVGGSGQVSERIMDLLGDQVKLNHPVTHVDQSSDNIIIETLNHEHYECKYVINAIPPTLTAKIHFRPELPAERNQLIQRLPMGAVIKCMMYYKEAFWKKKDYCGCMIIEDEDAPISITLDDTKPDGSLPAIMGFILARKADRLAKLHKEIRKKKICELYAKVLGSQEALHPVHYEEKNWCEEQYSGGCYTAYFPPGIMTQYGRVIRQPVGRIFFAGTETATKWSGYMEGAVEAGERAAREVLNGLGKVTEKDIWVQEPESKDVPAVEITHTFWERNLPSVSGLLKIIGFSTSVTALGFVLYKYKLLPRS
Assay: Inhibition of human MAO-A at 10 uM relative to control
MEASUREMENT_NAME: inhibition at 10 µM (%)
Write the answer as a number in %, unit excluded.

Request: For the molecule shown here, COc1ccc(CNC(=O)c2cc(-c3cc(Cl)cc(Cl)c3)cnc2-c2cccnc2)cc1OC , give the reported inhibition at 10 µM.
Response: 41

====

Species: Homo sapiens
Assay: Selectivity ratio of Ki for human orexin-1 receptor to Ki for human orexin-2 receptor
Label rule, in plain words: Ratio Ki of 200 and up is Condition met, under 200 is Condition not met.

Request: Answer whether Ratio Ki of COc1ccc(CNC(=O)c2cc(-c3cc(C)cc(C)c3)cnc2-c2cccnc2)cc1 is greater than or equal to 200.
Response: Condition not met

Request: Could you do the same for Cc1cc(C)cc(-c2cnc(-c3cccnc3)c(C(=O)NCc3ccc(N(C)C)cc3)c2)c1 , please?
Response: Condition not met

Request: What about this compound? COc1ccc(CNC(=O)c2cc(-c3cc(C)cc(F)c3)cnc2-c2cccnc2)cc1OC
Response: Condition met

Request: Same thing, different compound: COc1ccc(CNC(=O)c2cc(-c3cc(F)cc(F)c3)cnc2-c2cccnc2)cc1OC
Response: Condition met

Request: Now this one: Cc1cc(C)cc(-c2cnc(-c3cccnc3)c(C(=O)NCc3ccc4c(c3)OCO4)c2)c1
Response: Condition met

Request: Again, but for Cc1cc(C)cc(-c2cnc(-c3cccnc3)c(C(=O)N(C)Cc3ccc4c(c3)OCO4)c2)c1
Response: Condition not met

Request: Please give the result for COc1ccc(CNC(=O)c2cc(-c3cccc(Cl)c3)cnc2-c2cccnc2)cc1OC too.
Response: Condition met

====

Organism: Homo sapiens
Assay: Selectivity ratio of Ki for human orexin-1 receptor to Ki for human orexin-2 receptor
Some compounds, each annotated with its measured Ratio Ki.
Field format: numeric only.

COc1ccc(CNC(=O)c2cc(-c3cc(F)cc(Cl)c3)cnc2-c2cccnc2)cc1OC = 1810
Cc1cc(C)cc(-c2cnc(-c3cccnc3)c(C(=O)NCc3ccc(F)c(C)c3)c2)c1 = 61

Consider now this further compound.
Request: # get_value(readout='Ratio Ki', item= Cc1cc(C)cc(-c2cnc(-c3cccnc3)c(C(=O)N(C)Cc3ccc4nccnc4c3)c2)c1 )
Response: 92
